Assay: Growth inhibition of PLP2 cells after 48 hrs by SRB assay
Format: cell-based, Sus scrofa
Settings: pig
I'd appreciate it if you marked entries t when GI50 at 48 h is lower than 90 µM and f when it is not.

In plain terms, does COc1ccc(Nc2ccnc3ccsc23)cc1 come in under 90 µM for GI50 at 48 h?
t

In plain terms, does COc1cccc(Nc2ccnc3ccsc23)c1 come in under 90 µM for GI50 at 48 h?
t

In plain terms, does COc1ccccc1Nc1ccnc2ccsc12 come in under 90 µM for GI50 at 48 h?
t

In plain terms, does Fc1cccc(Oc2ccnc3ccsc23)c1 come in under 90 µM for GI50 at 48 h?
f

In plain terms, does Fc1ccccc1Nc1ccnc2ccsc12 come in under 90 µM for GI50 at 48 h?
f

In plain terms, does Fc1cccc(Nc2ccnc3ccsc23)c1 come in under 90 µM for GI50 at 48 h?
f

In plain terms, does Fc1ccc(Oc2ccnc3ccsc23)cc1 come in under 90 µM for GI50 at 48 h?
f

In plain terms, does Cc1c2ccncc2c(C)c2c1[nH]c1ccccc12 come in under 90 µM for GI50 at 48 h?
t

In plain terms, does COc1cccc(Oc2ccnc3ccsc23)c1 come in under 90 µM for GI50 at 48 h?
t

In plain terms, does COc1ccccc1Oc1ccnc2ccsc12 come in under 90 µM for GI50 at 48 h?
f

In plain terms, does Fc1ccc(Nc2ccnc3ccsc23)cc1 come in under 90 µM for GI50 at 48 h?
f

In plain terms, does Fc1ccccc1Oc1ccnc2ccsc12 come in under 90 µM for GI50 at 48 h?
t

In plain terms, does COc1ccc(Oc2ccnc3ccsc23)cc1 come in under 90 µM for GI50 at 48 h?
f

All values here come from ChEMBL document CHEMBL2434926.
